pIC50, Polyphenol oxidase 2 (Agaricus bisporus, UniProt O42713): measured values
Worth noting: pIC50 values are minus log10 of concentrations stated in mol/L.

Log: Polyphenol oxidase 2 (Agaricus bisporus, UniProt O42713), compound OCC1OC(Oc2ccc(O)cc2)C(O)C(O)C1O (configuration not stated) , pIC50 = 3.53

Reading of pIC50 for OCc1ccc(O)cc1 [4-Hydroxybenzyl alcohol] with Polyphenol oxidase 2 (Agaricus bisporus, UniProt O42713): 3.46
